Could you please report measured Epitope for the items listed next?
Tested on: hT40, dGA, dGAE and truncated tau fragments
Assay: Binding ELISA / epitope mapping of anti-tau scAbs with truncated tau proteins and 13mer peptides
Parameters: species or system human
Conditions: residue numbers of SEQ ID NO: 1 (hT40); CDR Tables 1-11

Please review the entries below; each comes with its answer.
| MOLECULE | Epitope |
| --- | --- |
| S1E12: anti-tau clone, Table 11; SEQ ID NO: 218 (protein, S1E12 amino acid sequence) scFv: QVQLQESGPSLVKPSQTLSLTCTVSGFSLGSNSVGWVRQAPGKAPEWVAGIDTDGEEGYNPALNSRLSITRDTSKSQVSLSLSSVTSEDTAVYYCGRSYRADGLAYGYVQAIDYWGPGLLVTVSSEGKSSGASGESKVDDRVVRTQPSSVSGSLGQRVSITCSGSFIGISSVGWFQQLPGSGLRTIIVASDGRPSGVPDRFSMSKSGNTATLTISSLQAEDEADYFCGSSDRTQYTGVFGSGTRLTVLG | 297-390 |
| CA2: anti-tau clone, Table 10; SEQ ID NO: 363 (protein, CA2 amino acid sequence) QVQLQESGPSLVKPSQTLSLTCTVSGFSLSSVAVNWVRQAPGKVPEWLGGIISNGGTGYNPALKSRLSITRDTSKSQVSLALTHVTTEDTAVYYCGRGVEWEGSMDYLGPGLLVTVSSEGKSSGSGSETKVDDQSVLTQPSSVSGFLGQRVTITCSGSSSNVGAGSYVGWYQQVPGSGLRILIYGATKRASGLPDRFSGSRSGNTATLTISSLQAEDEADYYCVSYQTDFTLVFGSGTRLTVLG | 1-155 |
| 3aA6: anti-tau clone, Table 8; SEQ ID NO: 418 (protein, 3aA6 amino acid sequence) QVRLQESGSSLVKPSQTLSLVCTVSGFPLTSNAVGWVRQAPGKAPEWLGLIDIDGDTAYNPALESRLSITRDTSKSQVSLSLSSVAIEDTAVYYCARHYDKWGYADSIDYWGPGLLVTVSSEGKSSGASGESKVDDQALLTQPSSVFGSLGQRVSITCSGSSSNVGYGDYVGWYQQVPGSAPKLLIYDATTRASGVPDRFSGSRSGNTATLTISSLQAEDEADYYCASYQNERSGVFGSGTRLTVLG | 147-157 |

Let's switch to this molecule now.
Prompt: // Epitope lookup, key: 412G11: C-terminal anti-tau clone, Table 5; SEQ ID NO: 434 (protein, 412G11 amino acid sequence) QVRLQESGPSLVKPSQTLSLTCTVSGFSLTSYALGWVRQAPGRAPEWIGNIWRGGRIEYNPALKSRLSITRDTSKSQVSLSLSSVTTEDTAVYYCSRSGGDWGPGLLVTVSSEGKSSGASGESKVDDQAVLTQPSSVSGSLGQRVSITCSGSSSNVGYGNYVGWYQQVPGSAPKLLIYGATSRASGVPDRFSGSRSENTATLTISSLQAEDEADYYCASYDRSESVVFGSGTRLTVLG
Completion: 412-441
